Test system: H9c2
protocol-details: Antiproliferative activity against rat H9C2 cells incubated for 3 days by CCK8 assay
Type: cell-based
run-conditions: H9c2, 72 h
measured-attribute: pEC50
Quick note: pEC50 means taking -log10 of the concentration in moles per liter.

Value of measured pEC50 for the entry Cc1ccc(C(=O)Nc2ccc(CN3CCN(C)CC3)c(C(F)(F)F)c2)cc1C#Cc1cnc2cccnn12 [PONATINIB] : 6.42

* * *

target-desc: Tyrosine-protein kinase ABL1 (Homo sapiens, UniProt P00519, T315I)
protocol-details: Inhibition of human ABL T315I mutant using EAIYAAPFAKKK substrate and [gamma-33P]-ATP incubated for 40 mins by scintillation counting method
measured-attribute: pIC50
Note on pIC50: it is the negative log10 of concentration, concentration in mol/L.

pIC50 recorded for this molecule, Cc1ccc(C(=O)Nc2ccc(CN3CCN(C(=O)CCCc4cn(CCOCCOCCOCCNc5cccc6c5C(=O)N(C5CCC(=O)NC5=O)C6=O)nn4)CC3)c(C(F)(F)F)c2)cc1C#Cc1cnc2cccnn12 (stereo unspecified) , is 7.88

* * *

System: HUVEC
protocol-details: Antiproliferative activity against human HUVEC incubated for 3 days by CCK8 assay
Assay type: cell-based
run-conditions: 72 h
measured-attribute: EC50 (nM)
The response must be a number in nM with no trailing unit.

Reported EC50 ( Cc1ccc(C(=O)Nc2ccc(CN3CCN(C)CC3)c(C(F)(F)F)c2)cc1C#Cc1cnc2cccnn12 [PONATINIB] ) = 515

* * *

Tested on: K562
protocol-details: Antiproliferative activity against human K562 cells incubated for 3 days by CCK8 assay
Format: functional, cell-based
run-conditions: K562, 72 h
measured-attribute: IC50 (nM)
API: value field is a number in nM; no unit string.

Form: compound = O=C1CCC(N2C(=O)c3cccc(NCCOCCOCCOCCn4cc(CCCC(=O)N[C@@H]5CCN(c6ncc(C(=O)Nc7ccc(OC(F)(F)Cl)cc7)cc6-c6cc[nH]n6)C5)nn4)c3C2=O)C(=O)N1 (some centres undefined) ; IC50 = 121

Value of measured IC50 for the entry Cc1ccc(NC(=O)c2ccc(CN3CCN(C)CC3)cc2)cc1Nc1nccc(-c2cccnc2)n1 [IMATINIB] : 76.2

// Cc1nc(Nc2ncc(C(=O)Nc3c(C)cccc3Cl)s2)cc(N2CCN(CCO)CC2)n1 [DASATINIB] : IC50 value = 0.19

Looking up Cc1ccc(C(=O)Nc2ccc(CN3CCN(C(=O)CCCc4cn(CCOCCOCCOCCNc5cccc6c5C(=O)N(C5CCC(=O)NC5=O)C6=O)nn4)CC3)c(C(F)(F)F)c2)cc1C#Cc1cnc2cccnn12 (centres undefined) , I see its IC50 listed as 7.5
